METHOD SUMMARY: Solubility in water by HPLC
Type: physicochemical
TEST CONDITIONS: thermodynamic from solid; water, 25° C., 24 hr; as parent free form

COMPOUND	solubility at 24 h
COc1ccc(NC(=O)c2ccc(C(=N)N(C)C)cc2)c(C(=O)Nc2ccc(Cl)cn2)c1 [Maleate]	2050 to 2270 µg/mL

---

METHOD SUMMARY: Log P determination by potentiometric titration (Sirius GlpKa)
Assay type: physicochemical
TEST CONDITIONS: Octanol:ISA water; read-out: Measured LogD
READOUT TYPE: logD

COMPOUND	RECORDED NUMBER
COc1ccc(NC(=O)c2ccc(C(=N)N(C)C)cc2)c(C(=O)Nc2ccc(Cl)cn2)c1 [Maleate]	0.09
